- system_name: RomR-REC^125 (Myxococcus xanthus)
- assay_details: ITC
readout_type: Kd (nM)
Only the number, expressed in nM, is required.

Problem: Need Kd, item RomX (N-terminal hexahistidine tagged construct) (natural protein, M. xanthus) MTDEEKVKAMRLARAIASDISLYNEQKIIKGIEQDNLFEVLKEELEEGRELYKSRVSQEIFTKMNFFERAINDIVLRSKAHVKSKIW
Solution: 1140
